viscosity for assorted compounds
- test_method_notes: xn = mol fraction of the nth substance listed
- protocol_conditions: 308.15 K; 100.5 kPa; Liquid; x1 = 0.45
reported_metric: viscosity (mPa·s)

* CCOC(=O)Cc1ccccc1 [ethyl phenylacetate] + CCO | 1.292
* CCCCCCCC(=O)OCC [ethyl octanoate] + CCO | 1
* CC(=O)OCCC(C)C [3-methylbutyl ethanoate] + CCO | 0.675
* CCCC(=O)OCCC(C)C [3-methylbutyl butanoate] + CCO | 0.84
* CCOC(=O)c1ccccc1 [ethyl benzoate] + CCO | 1.138
* CCCCCC(=O)OCC [ethyl hexanoate] + CCO | 0.758

* * *

- test_method_notes: xn = mol fraction of the nth substance listed
- protocol_conditions: 298.15 K; 101 kPa; Liquid; x1 = 0.7
Decide by mass density: equal to or exceeding 900 kg/m3 means true (1), less means false (0).

* CCCCCCCC(=O)OCC [ethyl octanoate] + CCO | false (0)
* CCOC(=O)Cc1ccccc1 [ethyl phenylacetate] + CCO | true (1)
* CCOC(=O)c1ccccc1 [ethyl benzoate] + CCO | true (1)
* CCCC(=O)OCCC(C)C [3-methylbutyl butanoate] + CCO | false (0)
* CCCCCC(=O)OCC [ethyl hexanoate] + CCO | false (0)

* * *

- test_method_notes: xn = mol fraction of the nth substance listed
- protocol_conditions: 288.15 K; 100.5 kPa; Liquid; x1 = 0.65
Decide by viscosity: equal to or exceeding 2 mPa·s means Satisfied, less means Not satisfied.

• CCCCCC(=O)OCC [ethyl hexanoate] + CCO = Not satisfied
• CCCC(=O)OCCC(C)C [3-methylbutyl butanoate] + CCO = Not satisfied
• CCCCCCCC(=O)OCC [ethyl octanoate] + CCO = Not satisfied
• CCOC(=O)c1ccccc1 [ethyl benzoate] + CCO = Not satisfied
• CCOC(=O)Cc1ccccc1 [ethyl phenylacetate] + CCO = Satisfied
• CC(=O)OCCC(C)C [3-methylbutyl ethanoate] + CCO = Not satisfied

* * *

- test_method_notes: xn = mol fraction of the nth substance listed
- protocol_conditions: 318.15 K; 101 kPa; Liquid; x1 = 0.1
mass density for assorted compounds
reported_metric: mass density (kg/m3)

* CCCCCCCC(=O)OCC [ethyl octanoate] + CCO | 787.83
* CCOC(=O)c1ccccc1 [ethyl benzoate] + CCO | 823.84
* CCCCCC(=O)OCC [ethyl hexanoate] + CCO | 785.96
* CCOC(=O)Cc1ccccc1 [ethyl phenylacetate] + CCO | 824.82
* CCCC(=O)OCCC(C)C [3-methylbutyl butanoate] + CCO | 785.54

* * *

- test_method_notes: xn = mol fraction of the nth substance listed
- protocol_conditions: 298.15 K; 101 kPa; Liquid; x1 = 0.35
mass density for assorted compounds
reported_metric: mass density (kg/m3)

- CCCC(=O)OCCC(C)C [3-methylbutyl butanoate] + CCO: 830.31
- CCCCCCCC(=O)OCC [ethyl octanoate] + CCO: 833.94
- CCOC(=O)Cc1ccccc1 [ethyl phenylacetate] + CCO: 930.79
- CCOC(=O)c1ccccc1 [ethyl benzoate] + CCO: 933.45
- CCCCCC(=O)OCC [ethyl hexanoate] + CCO: 833.2

* * *

viscosity for assorted molecules
- test_method_notes: xn = mol fraction of the nth substance listed
- protocol_conditions: 288.15 K; 100.5 kPa; Liquid; x1 = 0.7
reported_metric: viscosity (mPa·s)

* CCOC(=O)c1ccccc1 [ethyl benzoate] + CCO | 1.959
* CC(=O)OCCC(C)C [3-methylbutyl ethanoate] + CCO | 0.911
* CCCC(=O)OCCC(C)C [3-methylbutyl butanoate] + CCO | 1.224
* CCCCCC(=O)OCC [ethyl hexanoate] + CCO | 1.048
* CCOC(=O)Cc1ccccc1 [ethyl phenylacetate] + CCO | 2.348
* CCCCCCCC(=O)OCC [ethyl octanoate] + CCO | 1.542

* * *

- test_method_notes: xn = mol fraction of the nth substance listed
- protocol_conditions: 318.15 K; 100.5 kPa; Liquid; x1 = 0.6
Binary label based on viscosity with cut-off 0.9 mPa·s: below gives Yes, not below gives No.

• CCCC(=O)OCCC(C)C [3-methylbutyl butanoate] + CCO = Yes
• CCCCCC(=O)OCC [ethyl hexanoate] + CCO = Yes
• CCOC(=O)c1ccccc1 [ethyl benzoate] + CCO = No
• CCOC(=O)Cc1ccccc1 [ethyl phenylacetate] + CCO = No
• CC(=O)OCCC(C)C [3-methylbutyl ethanoate] + CCO = Yes

* * *

- test_method_notes: xn = mol fraction of the nth substance listed
- protocol_conditions: 298.15 K; 100.5 kPa; Liquid; x1 = 0.85
Binary label based on viscosity with cut-off 1 mPa·s: below gives Criterion met, not below gives Criterion not met.

* CCCC(=O)OCCC(C)C [3-methylbutyl butanoate] + CCO | Criterion not met
* CCCCCC(=O)OCC [ethyl hexanoate] + CCO | Criterion met
* CCCCCCCC(=O)OCC [ethyl octanoate] + CCO | Criterion not met
* CCOC(=O)c1ccccc1 [ethyl benzoate] + CCO | Criterion not met
* CCOC(=O)Cc1ccccc1 [ethyl phenylacetate] + CCO | Criterion not met
* CC(=O)OCCC(C)C [3-methylbutyl ethanoate] + CCO | Criterion met

* * *

- test_method_notes: xn = mol fraction of the nth substance listed
- protocol_conditions: 298.15 K; 100.5 kPa; Liquid; x1 = 0.45
± gives the expanded uncertainty stated by the source.
viscosity for assorted compounds
reported_metric: viscosity

• CC(=O)OCCC(C)C [3-methylbutyl ethanoate] + CCO = 0.786 ± 0.015 mPa·s
• CCCCCCCC(=O)OCC [ethyl octanoate] + CCO = 1.183 ± 0.018 mPa·s
• CCCCCC(=O)OCC [ethyl hexanoate] + CCO = 0.88 ± 0.016 mPa·s
• CCOC(=O)c1ccccc1 [ethyl benzoate] + CCO = 1.363 ± 0.019 mPa·s
• CCCC(=O)OCCC(C)C [3-methylbutyl butanoate] + CCO = 0.989 ± 0.016 mPa·s
• CCOC(=O)Cc1ccccc1 [ethyl phenylacetate] + CCO = 1.543 ± 0.021 mPa·s

* * *

viscosity for assorted molecules
- test_method_notes: xn = mol fraction of the nth substance listed
- protocol_conditions: 298.15 K; 100.5 kPa; Liquid; x1 = 0.75
reported_metric: viscosity (mPa·s)

- CC(=O)OCCC(C)C [3-methylbutyl ethanoate] + CCO: 0.78
- CCOC(=O)Cc1ccccc1 [ethyl phenylacetate] + CCO: 1.974
- CCOC(=O)c1ccccc1 [ethyl benzoate] + CCO: 1.649
- CCCCCCCC(=O)OCC [ethyl octanoate] + CCO: 1.306
- CCCC(=O)OCCC(C)C [3-methylbutyl butanoate] + CCO: 1.043
- CCCCCC(=O)OCC [ethyl hexanoate] + CCO: 0.902

* * *

- test_method_notes: xn = mol fraction of the nth substance listed
- protocol_conditions: 308.15 K; 101 kPa; Liquid; x1 = 0.2
mass density for assorted compounds
reported_metric: mass density (kg/m3)

* CCCCCCCC(=O)OCC [ethyl octanoate] + CCO | 810.84
* CCOC(=O)c1ccccc1 [ethyl benzoate] + CCO | 875.95
* CCCC(=O)OCCC(C)C [3-methylbutyl butanoate] + CCO | 807.52
* CCCCCC(=O)OCC [ethyl hexanoate] + CCO | 808.85
* CCOC(=O)Cc1ccccc1 [ethyl phenylacetate] + CCO | 875.99

* * *

- test_method_notes: xn = mol fraction of the nth substance listed
- protocol_conditions: 298.15 K; 100.5 kPa; Liquid; x1 = 0.25
Binary label based on viscosity with cut-off 1 mPa·s: below gives criterion met, not below gives criterion not met.

• CCCCCCCC(=O)OCC [ethyl octanoate] + CCO = criterion not met
• CCOC(=O)Cc1ccccc1 [ethyl phenylacetate] + CCO = criterion not met
• CCOC(=O)c1ccccc1 [ethyl benzoate] + CCO = criterion not met
• CCCCCC(=O)OCC [ethyl hexanoate] + CCO = criterion met
• CC(=O)OCCC(C)C [3-methylbutyl ethanoate] + CCO = criterion met

* * *

viscosity for assorted compounds
- test_method_notes: xn = mol fraction of the nth substance listed
- protocol_conditions: 298.15 K; 100.5 kPa; Liquid; x1 = 0.55
reported_metric: viscosity (mPa·s)

- CCOC(=O)Cc1ccccc1 [ethyl phenylacetate] + CCO: 1.677
- CCOC(=O)c1ccccc1 [ethyl benzoate] + CCO: 1.449
- CCCCCC(=O)OCC [ethyl hexanoate] + CCO: 0.882
- CCCCCCCC(=O)OCC [ethyl octanoate] + CCO: 1.222
- CCCC(=O)OCCC(C)C [3-methylbutyl butanoate] + CCO: 1.001
- CC(=O)OCCC(C)C [3-methylbutyl ethanoate] + CCO: 0.776

* * *

- test_method_notes: xn = mol fraction of the nth substance listed
- protocol_conditions: 318.15 K; 100.5 kPa; Liquid; x1 = 0.5
reported_metric: viscosity (mPa·s)

- CCOC(=O)Cc1ccccc1 [ethyl phenylacetate] + CCO: 1.145
- CC(=O)OCCC(C)C [3-methylbutyl ethanoate] + CCO: 0.583
- CCCCCC(=O)OCC [ethyl hexanoate] + CCO: 0.658
- CCCC(=O)OCCC(C)C [3-methylbutyl butanoate] + CCO: 0.729
- CCCCCCCC(=O)OCC [ethyl octanoate] + CCO: 0.873
- CCOC(=O)c1ccccc1 [ethyl benzoate] + CCO: 0.993
